Test system: melanoma SK-MEL-5
Experiment: NCI-60 SRB screen
Format: cell-based
Conditions: Homo sapiens; SK-MEL-5, 10^–5 Molar; read-out: Percent growth inhibition
Outcome: 1 for inhibition at 10 µM of at least 1%; 0 for anything lower.

Some entries whose results are on file:
* CCn1cc(C(=O)O)c(=O)c2cc(F)c(N3CCN(C(=O)c4ccccc4)C(C)C3)c(F)c21 (centres unmarked) [Compound 7a] | 1
* CCn1cc(C(=O)O)c(=O)c2cc(F)c(N3CCN(C(=O)c4ccc(Br)cc4)C(C)C3)c(F)c21 (centres unmarked) [Compound 7b] | 1

Q: Does inhibition at 10 µM meet or surpass 1% for CCn1cc(C(=O)NN=Cc2cccnc2)c(=O)c2cc(F)c(N3CCNC(C)C3)c(F)c21 (centres unmarked) [Compound 3d] ?
Result: 1

Q: Does inhibition at 10 µM meet or surpass 1% for CCn1cc(C(=O)O)c(=O)c2cc(F)c(N3CCN(CC(=O)Nc4ccccc4)C(C)C3)c(F)c21 (centres unmarked) [Compound 5a] ?
Result: 0

Q: Does inhibition at 10 µM meet or surpass 1% for CCn1cc(C(=O)O)c(=O)c2cc(F)c(N3CCN(C(=O)c4ccc(Cl)cc4)C(C)C3)c(F)c21 (centres unmarked) [Compound 7c] ?
Result: 1

###

Each entry below carries its recorded inhibition at 10 µM.
Test system: IGROV1
Test: NCI-60 SRB screen
Format: cell-based
Conditions: Homo sapiens, IGROV-1; IGROV1, 10^–5 Molar; read-out: Percent growth inhibition
Record the value in %, omitting the unit from your answer.

• CCn1cc(C(=O)O)c(=O)c2cc(F)c(N3CCN(CC(=O)Nc4ccc(S(=O)(=O)Nc5nccc(C)n5)cc4)C(C)C3)c(F)c21 (stereo not shown) = 0.3
• CCn1cc(C(=O)O)c(=O)c2cc(F)c(N3CCN(CC(=O)Nc4ccc(Cl)cc4)C(C)C3)c(F)c21 (stereo not shown) = 0.82

Here is the next item to consider.
Q: Report inhibition at 10 µM for CCn1cc(C(=O)NN=Cc2ccccc2)c(=O)c2cc(F)c(N3CCNC(C)C3)c(F)c21 (stereo not shown) please.
Result: 42

###

Each entry below carries its recorded inhibition at 10 µM.
Tested on: NCI/ADR-RES
Test: NCI-60 SRB screen
Type: cell-based
Conditions: Homo sapiens, 10^–5 Molar, read-out: Percent growth inhibition
Record the value in %, omitting the unit from your answer.

• CCn1cc(C(=O)NN=Cc2cccnc2)c(=O)c2cc(F)c(N3CCNC(C)C3)c(F)c21 (stereo not shown) = 2.29
• CCn1cc(C(=O)O)c(=O)c2cc(F)c(N3CCN(CC(=O)Nc4ccccc4)C(C)C3)c(F)c21 (stereo not shown) = 3.34
• CCn1cc(C(=O)NN=Cc2cccc(F)c2)c(=O)c2cc(F)c(N3CCNC(C)C3)c(F)c21 (stereo not shown) = 21.6
• CCn1cc(C(=O)O)c(=O)c2cc(F)c(N3CCN(CC(=O)Nc4ccc(Cl)cc4)C(C)C3)c(F)c21 (stereo not shown) = 8.06
• CCn1cc(C(=O)O)c(=O)c2cc(F)c(N3CCN(CC(=O)Nc4ccc(S(N)(=O)=O)cc4)C(C)C3)c(F)c21 (stereo not shown) = 0.27

Q: Report inhibition at 10 µM for CCn1cc(C(=O)NN=Cc2ccccc2)c(=O)c2cc(F)c(N3CCNC(C)C3)c(F)c21 (stereo not shown) please.
Result: 44

Q: Report inhibition at 10 µM for CCn1cc(C(=O)NN=Cc2ccc(Br)cc2)c(=O)c2cc(F)c(N3CCNC(C)C3)c(F)c21 (stereo not shown) please.
Result: 16.7
